Values were extracted from patent US20250027068.

- tested_target: pooled human IgG
metric_name: Enzyme Activity Endpoint Assay: scIgG (ng/µL)
Note: unit ng/µL is implicit; provide only the numeric part.

Find the recorded Enzyme Activity Endpoint Assay: scIgG belonging to PRT-25 (protein) MANQEIRYSEVTPYHVTSVWTKGVTPPANFTQGEDVFHAPYVANQGWYDITKTFNGKDDLLCGAATAGNMLHWWFDQNKDQIERYLKEHPEKQKINFNGEQMFDVKEAIDTKDSQTDSKLFEYFKEKAFPYLSTKHLGVFPDHVIDMFINGYRLSLTNHGPTPVKEGSKDPRGGIFDAVFTRGDQSKLLTSRHDFKEKNLKEISDLIKQELTEGKALGLSHTYANVRINHVINLWGADFDSNGNLEAIYVTDSDSNASIGMKKYFVGVNSAGKVAISAKEIEEDNIGAQVLGLFTLSTGQDIWNQTN and report it.
0
